system: A-549; experiment: cells; conditions: Homo sapiens, A549, 48 h, read-out: TGI A549
readout-kind: IC (TGI) (µM)
Quick reminder: number only, in µM, skip the unit.

Here is how some molecules turned out for IC (TGI).
molecule	readout-kind	output-unit	reading
COc1c(C)cc2c(c1O)[C@H]1N[C@@H](C2)[C@H](C#N)N2C1[C@@H]1SCC(NC(=O)C(F)(F)F)C(=O)OC[C@H]2c2c3c(c(C)c(OC(C)=O)c21)OCO3 (stereo partly shown)	IC (TGI)	µM	0.00597
COc1cc2c(cc1O)CCN[C@]21C[S+]([O-])[C@@H]2c3c(OC(C)=O)c(C)c4c(c3[C@H](COC1=O)N1C2C2c3c(cc(C)c(OC)c3O)C[C@@H]([C@@H]1C#N)N2C)OCO4 (stereo partly shown)	IC (TGI)	µM	0.0521
COc1c(C)cc2c(c1O)[C@H]1N[C@@H](C2)[C@H](O)N2C1[C@@H]1SCC(NC(C)=O)C(=O)OC[C@H]2c2c3c(c(C)c(OC(C)=O)c21)OCO3 (stereo partly shown)	IC (TGI)	µM	0.0229
C=CCN1[C@@H]2c3c(cc(C)c(OC)c3O)C[C@H]1[C@H](C#N)N1C2[C@@H]2SCC(N)C(=O)OC[C@H]1c1c3c(c(C)c(OC(C)=O)c12)OCO3 (stereo partly shown)	IC (TGI)	µM	0.624
COc1c(C)cc2c(c1O)[C@@H]1C3[C@@H]4SC[C@]5(NCCc6c5[nH]c5ccccc65)C(=O)OC[C@@H](c5c6c(c(C)c(OC(C)=O)c54)OCO6)N3[C@@H](C#N)[C@H](C2)N1C (stereo partly shown)	IC (TGI)	µM	0.059

Query :: Request the reported IC (TGI) associated with C=CCN1[C@@H]2c3c(cc(C)c(OC)c3OCOCCOC)C[C@H]1[C@H](C#N)N1C2CC2(O)C(=O)C(C)=C3OCOC3=C2[C@@H]1CO[Si](c1ccccc1)(c1ccccc1)C(C)(C)C (stereo partly shown)
Result :: 11.8

Query :: Query (molecule): COc1c(C)cc2c(c1O)[C@@H]1C3[C@@H]4SCC(N)C(=O)OC[C@@H](c5c6c(c(C)c(OC(C)=O)c54)OCO6)N3[C@@H](C#N)C(C2)N1C (stereo partly shown) ; field requested: IC (TGI)
Result :: 0.643

Query :: Any idea what IC (TGI) was measured for C=CCN1[C@@H]2c3c(cc(C)c(OC)c3OCOCCOC)C[C@H]1[C@H](C#N)N1C2CC2(O)C(=O)C(C)=C3OCOC3=C2[C@@H]1COC(=O)[C@H](CSCC1c2ccccc2-c2ccccc21)NC(=O)OC(C)(C)C (stereo partly shown) ?
Result :: 1010

Query :: IC (TGI) lookup needed for COC1=C(C)C(=O)C2=C(C1=O)[C@@H]1C3[C@@H]4SC[C@]5(NCCc6c5[nH]c5ccccc65)C(=O)OC[C@@H](c5c6c(c(C)c(OC(C)=O)c54)OCO6)N3[C@@H](C#N)[C@H](C2)N1C (stereo partly shown) , thanks.
Result :: 0.211

Query :: Quick one: IC (TGI) of CCCCCCCCCCCCCCCC(=O)NC1CS[C@@H]2c3c(OC(C)=O)c(C)c4c(c3[C@H](COC1=O)N1C2[C@@H]2N[C@@H](Cc3cc(C)c(OC)c(O)c32)[C@@H]1O)OCO4 (stereo partly shown) ?
Result :: 1.42
